tested on: UACC-257; test: NCI tumour cell line growth inhibition, 48 h
The source made the active and inactive calls. No stated cut-off is given here; in the data, active = GI50 up to about 1.1 µM and inactive = higher.
Attribute measured: GI50

These recorded examples may help you get a feel for the data.
COC(=O)C1=C(C(=O)OC)SC2(S1)C1=C(CCCC1)SC(C(=O)OC)=C2C(=O)OC	13.1 µM (inactive)
CC1(C)OC(=O)N(c2ccccc2)C12C=Cc1cccc([N+](=O)[O-])c1O2 (stereo not given)	47.6 µM (inactive)
O=c1c(C(c2cccc(C(c3c(O)oc4ccccc4c3=O)c3c(O)oc4ccccc4c3=O)c2)c2c(O)oc3ccccc3c2=O)c(O)oc2ccccc12	69 µM (inactive)
CCN1C(=O)CS/C1=N\NC(=O)CSc1nc2ccccc2c(=O)n1CC	> 100 µM (inactive)
COc1cc(CCc2cccnc2)cc(OC)c1OC	> 100 µM (inactive)
O=c1[nH]c(=O)n([C@@H]2C[C@H](CO)[C@H](O)C2)cc1/C=C/Br	> 100 µM (inactive)
O=C1C(Br)=CC2(C=C1Br)CCNC1=C2C(=O)c2cccnc2C1=O	8.36 µM (inactive)
CCNC(=O)COc1ccc(Cl)cc1Cl	> 100 µM (inactive)
CCN(CC)c1ccc2cc(-c3nnc(-c4ccccc4)[nH]3)c(=O)oc2c1	> 100 µM (inactive)

Could you now look at the following compound, please?
Task: Fill in: GI50 on UACC-257, entry COC(=O)c1cc(C)ccc1C1CN=NC12Cc1ccc(C)cc1C2=O (stereo not given)
Output: 34.3 µM (inactive)
